Taken from the supplement of paper PMC2824726.

Tested on: MDA-MB-231
Assay: shRNA barcode abundance ratio t_end/t_zero (depletion over 4 weeks of proliferation) (log2 ratio); higher = less depletion (weaker anti-proliferative effect of the shRNA)
Conditions: time after t zero 28 days
Measured attribute: shRNA barcode abundance ratio t end/t zero (log2)
Just the number, please, no unit after it.

Example cases with answers are listed next.
GCTGAGACAACGTACGACAAA (targeted gene: GDNF) | -0.263
CAGCTTTCAGTCAGATGTATA (targeted gene: BRAF) | 0.489
CCACCCTGAGCCATTATCTAA (targeted gene: PSEN1) | 0.146
GCTGAAGTACAGGACAATTAT (targeted gene: TAX1BP1) | 0.181
GGGCAAGTTTCCATCATCTAT (targeted gene: TDGF1) | -0.11

With those in mind, consider the next sequence.
Report measured shRNA barcode abundance ratio t end/t zero (log2) on MDA-MB-231; entry: CCACAGATGTTCATAGACAAT (targeted gene: NFKB1) 0.547
